// provenance: the Human Domainome abundance scans (Beltran et al. 2025)

The variants listed here are annotated with their abundance fitness.
B1: MEF2-activating motif and SAP domain-containing transcriptional regulator, residues 170 to 204; numbered along this chain, Q6ZN01 (parent)
chain: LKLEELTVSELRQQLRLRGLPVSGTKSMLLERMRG

Variants of: B1
experimentSummary: abundance fitness (aPCA) (normalised: wild type 0, dead -1); higher = more abundant; growth selection in yeast, the domain comes from the species named
measurementContext: Homo sapiens
experimentalReadout: abundance fitness

1) L6H	-0.434
2) S23G	-0.007
3) L3E	-0.249
